Answer each item with its documented pest or weed control at 250 g/ha.
Test system: Echinochloa crus-galli (ECHCG)
PROTOCOL: Test Example 1 pre-emergence herbicidal activity
Type: in vivo
PROTOCOL CONDITIONS: Echinochloa crus-galli, 480 h, rate 250 g/ha, evaluated 20 days later, read-out: Pre-emergence activity ECHCG (100=total damage to plant; 0=no damage to plant)
Field format: number, assumed %, no unit text.

// recorded pest or weed control at 250 g/ha for CCc1cc(C)cc(CC)c1C1=C(O)[C@@H]2[C@@H]3O[C@@H](C[C@H]3c3ccc(Cl)cc3C)[C@@H]2C1=O (racemic) [Example T165] : 80

// recorded pest or weed control at 250 g/ha for CCOCOC[C@]12CC[C@H](O1)[C@@H]1C(=O)C(c3c(CC)cc(C)cc3CC)=C(O)[C@@H]12 [Example T19] : 100

// recorded pest or weed control at 250 g/ha for Cc1cc(C)c(C2=C(O)[C@@H]3[C@@H]4O[C@@H]([C@H](Br)[C@H]4Br)[C@@H]3C2=O)c(C)c1 [Example T46] : 70

// recorded pest or weed control at 250 g/ha for CCc1cc(C)cc(CC)c1C1=C(O)[C@@H]2[C@@H]3O[C@@H](C[C@H]3c3ccccc3[N+](=O)[O-])[C@@H]2C1=O [Example T177] : 70

// recorded pest or weed control at 250 g/ha for CCc1cc(C)cc(CC)c1C1=C(OC(=O)CC(C)C)[C@H]2[C@@H](C1=O)[C@@H]1CC[C@H]2O1 [Example P19] : 100

// recorded pest or weed control at 250 g/ha for CCc1cc(C)cc(CC)c1C1=C(O)[C@@H]2[C@@H]3O[C@@H](C[C@H]3c3ccc(F)c(Cl)c3)[C@@H]2C1=O [Example T149] : 90

###

Tested on: Lolium perenne (LOLPE)
PROTOCOL: Test Example 1 pre-emergence herbicidal activity
Assay type: in vivo
PROTOCOL CONDITIONS: Lolium perenne, 480 h, rate 250 g/ha, evaluated 20 days later, read-out: Pre-emergence activity LOLPE (100=total damage to plant; 0=no damage to plant)
Method: Monocotyledonous and dicotyledonous test plants were sown in standard soil in pots. […] The test plants were then grown in a greenhouse under optimum conditions until, 15 days later for post-emergence and 20 days for pre-emergence, the test was evaluated (100=total damage to plant; 0=no damage to plant). […]
Answer each item with its documented pest or weed control at 250 g/ha.
Field format: number, assumed %, no unit text.

Kindly note: Lolium perenne (LOLPE), CSC[C@]12CC[C@H](O1)[C@@H]1C(=O)C(c3c(C)cc(C)cc3C)=C(O)[C@@H]12 [Example T53] , pest or weed control at 250 g/ha value reported: 10

Kindly note: Lolium perenne (LOLPE), CCc1cc(C)cc(CC)c1C1=C(O)[C@H]2[C@@H](C1=O)[C@@H]1CC[C@@]2(C)O1 [Example T8] , pest or weed control at 250 g/ha value reported: 100

Kindly note: Lolium perenne (LOLPE), Cc1cc(C)c(C2=C(O)[C@H]3[C@@H](C2=O)[C@]2(C)CC(C)[C@@]3(C)O2)c(C)c1 (stereo partly shown) [Example T125] , pest or weed control at 250 g/ha value reported: 100

Kindly note: Lolium perenne (LOLPE), CCc1cc(C)cc(CC)c1C1=C(O)[C@@H]2[C@@H]3O[C@@H](C[C@H]3c3ccc(C)c(F)c3)[C@@H]2C1=O [Example T146] , pest or weed control at 250 g/ha value reported: 90

Kindly note: Lolium perenne (LOLPE), CCC(C)C(=O)OC1=C(c2c(C)cc(C)cc2C)C(=O)[C@@H]2[C@H]1[C@H]1CC[C@@H]2O1 (stereo partly shown) [Example P9] , pest or weed control at 250 g/ha value reported: 100

Kindly note: Lolium perenne (LOLPE), CCc1cc(C)cc(CC)c1C1=C(O)[C@@H]2[C@@H]3O[C@@H](C[C@H]3c3cccc(C(C)=O)c3)[C@@H]2C1=O (racemic) [Example T174] , pest or weed control at 250 g/ha value reported: 30

Kindly note: Lolium perenne (LOLPE), Cc1cc(C)c(C2=C(O)[C@H]3[C@@H](C2=O)[C@]2(C)C=C[C@@]3(C)O2)c(C)c1 [Example T34] , pest or weed control at 250 g/ha value reported: 60

Kindly note: Lolium perenne (LOLPE), CCc1cc(C)cc(CC)c1C1=C(OC(=O)C(C)C)[C@H]2[C@@H](C1=O)[C@@H]1CC[C@H]2O1 [Example P26] , pest or weed control at 250 g/ha value reported: 100

Kindly note: Lolium perenne (LOLPE), Cc1cc(C)c(C2=C(O)[C@@H]3[C@@H]4O[C@@H](C[C@H]4C)[C@@H]3C2=O)c(C)c1 [Example T65] , pest or weed control at 250 g/ha value reported: 100

Kindly note: Lolium perenne (LOLPE), COC[C@H]1C[C@@H]2O[C@H]1[C@H]1C(O)=C(c3c(C)cc(C)cc3C)C(=O)[C@H]12 [Example T47] , pest or weed control at 250 g/ha value reported: 100

The reported numbers originate from patent US8754242B2.
